- measured-target: CSK (Homo sapiens)
- Construct: lines 1-140) and Reaction Biology
- Sequence (P41240 whole entry): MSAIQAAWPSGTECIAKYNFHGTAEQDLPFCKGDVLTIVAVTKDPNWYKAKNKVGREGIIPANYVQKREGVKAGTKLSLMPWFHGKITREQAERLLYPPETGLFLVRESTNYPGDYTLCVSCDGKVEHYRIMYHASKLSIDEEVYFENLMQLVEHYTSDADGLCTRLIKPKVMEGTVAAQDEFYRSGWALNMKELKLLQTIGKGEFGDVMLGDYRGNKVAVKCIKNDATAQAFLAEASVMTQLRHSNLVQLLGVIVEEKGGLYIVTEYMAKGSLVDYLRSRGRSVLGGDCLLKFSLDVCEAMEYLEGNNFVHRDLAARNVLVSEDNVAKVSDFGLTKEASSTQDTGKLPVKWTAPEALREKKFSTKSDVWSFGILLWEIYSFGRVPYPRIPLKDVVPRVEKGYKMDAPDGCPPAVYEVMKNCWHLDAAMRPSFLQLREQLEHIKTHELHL
- protocol: Dundee kinase panel
- Format: biochemical
- settings: read-out: residual activity
reported-metric: remaining activity at 1 µM
Reply with the number and its unit after it.

Q: # query: remaining activity at 1 µM of entry O=C1Cc2c([nH]c3ccc(Br)cc23)-c2ccccc2N1
Ans: 68%

Q: # query: remaining activity at 1 µM of entry O=C1Nc2ccc(I)cc2/C1=C/c1cc(Br)c(O)c(Br)c1
Ans: 52%

Q: State the recorded remaining activity at 1 µM for this entry: Oc1ncnc2c1c(-c1ccccc1)cn2-c1ccccc1
Ans: 97%

More entries:
Q: Data request, read-out remaining activity at 1 µM, for COCCOc1ccc(-c2cn(-c3ccccc3)c3nc[nH]c(=O)c23)cc1
Ans: 103%
